Here the recorded IC50 is given for each entry.
System: L1210
EXPERIMENTAL PROTOCOL: Antiproliferative activity using the murine L1210 leukemia cell line
Format: functional, cell-based
ASSAY CONDITIONS: Mus musculus
Give the number; µM is assumed, so skip it.

What value of IC50 has been recorded for this entry: Cn1cc(-c2nc(C(N)=O)cs2)c2c1C(=O)C=CC2=O
0.8

Next: Cn1cc(C(=O)NCCN2CCOCC2)c2c1C(=O)C=CC2=O
6.5
